# Study system: 5HT2A receptor (Homo sapiens)
# Sequence (P28223 whole entry): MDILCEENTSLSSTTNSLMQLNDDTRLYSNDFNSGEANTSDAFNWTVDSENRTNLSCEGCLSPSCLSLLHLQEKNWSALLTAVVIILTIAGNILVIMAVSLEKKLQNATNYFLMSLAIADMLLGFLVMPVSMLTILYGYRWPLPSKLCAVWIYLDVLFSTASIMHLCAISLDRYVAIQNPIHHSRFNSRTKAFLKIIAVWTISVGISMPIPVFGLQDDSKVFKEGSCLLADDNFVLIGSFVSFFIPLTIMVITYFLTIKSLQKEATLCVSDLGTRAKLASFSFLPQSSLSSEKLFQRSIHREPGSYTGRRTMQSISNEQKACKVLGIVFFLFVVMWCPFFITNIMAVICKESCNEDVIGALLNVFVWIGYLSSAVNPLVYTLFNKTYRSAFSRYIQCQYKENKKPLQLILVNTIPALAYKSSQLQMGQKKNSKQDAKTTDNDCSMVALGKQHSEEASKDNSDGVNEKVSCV
# Protocol notes: cell-based
# Set-up: expressed in transfected cells; host or cells: HEK293T cells, transient co-transfection
# Recorded conditions: BRET2 Gαq dissociation, HEK293T cells; read-out: 5HT2A Gq EC50
Endpoint label: pEC50
For clarity, pEC50 is expressed as the negative log10 of concentration in mol/L.

5HT2A receptor (Homo sapiens) assay, molecule "Fc1cccc2c(C3=CCCNC3)n[nH]c12" , recorded pEC50 = 8.04

5HT2A receptor (Homo sapiens) assay, molecule "CN1CCC=C(c2c[nH]c3c(C(F)(F)F)cccc23)C1" , recorded pEC50 = 7.75

5HT2A receptor (Homo sapiens) assay, molecule "Cc1cc(F)cc2c(C3=CCCN(C)C3)c[nH]c12" , recorded pEC50 = 7.13

5HT2A receptor (Homo sapiens) assay, molecule "Clc1ccc2[nH]cc(C3=CCCNC3)c2c1" , recorded pEC50 = 8.14

5HT2A receptor (Homo sapiens) assay, molecule "CCc1cccc2c(C3=CCCN(C)C3)c[nH]c12" , recorded pEC50 = 7.60

----------
# Study system: 5HT2A receptor (Homo sapiens)
# Protocol notes: cell-based
# Parameters: expressed in transfected cells; host or cells: HEK293T cells, transient co-transfection
# Recorded conditions: HEK-293T, BRET2 Gαq dissociation, HEK293T, normalized to 5-HT; read-out: 5HTA Gq Emax (%)
Label scheme for Emax: c1 (below 70%), c2 (70% to below 90%), c3 (90% or more)

Assign a bin to Cc1cccc2c(N3CCNCC3)n[nH]c12 [Example 230, 7-methyl-3-(piperazin-1-yl)-1H-indazole] c1

Assign a bin to CCCN1CCC=C(c2n[nH]c3cccc(C#N)c23)C1 [Example 175] c1

Assign a bin to Cc1cccc2c(C34CNCC3C4)n[nH]c12 (centres unmarked) [Example 186] c3

Assign a bin to Clc1cccc2c(C3=CC4CCC(C3)N4)n[nH]c12 (centres unmarked) [Example 221] c1

Assign a bin to Clc1cc(Br)cc2c(C3CNC3)c[nH]c12 [Example 267] c1

Assign a bin to Clc1cccc2c(C3=CCNC3)n[nH]c12 [Example 206] c3

Assign a bin to Fc1cc(Cl)c2[nH]nc(C34CNCC3C4(F)F)c2c1 (centres unmarked) [Example 203] c1

Assign a bin to CCC(C)N1CCC=C(c2n[nH]c3c(Cl)cccc23)C1 (centres unmarked) [Example 167] c1

Assign a bin to Clc1cccc2c(C34CCNCC3C4)n[nH]c12 (centres unmarked) [Example 228] c2

Assign a bin to CN1CC=C(c2c[nH]c3c(Cl)cccc23)C1 [Example 210] c2

Assign a bin to CCCN1CCC=C(c2c[nH]c3c(CC)cccc23)C1 [Example 158] c2

Assign a bin to Clc1cccc2c(C3CC4CCC(C3)N4)n[nH]c12 (centres unmarked) [Example 225] c3

Assign a bin to CC(C)c1cccc2c(C3CNC3)c[nH]c12 [Example 262, 3-(azetidin-3-yl)-7-isopropyl-1H-indole] c3

Assign a bin to Clc1cccc2c(-c3cncnc3)n[nH]c12 [Example 216, 7-chloro-3-(pyrimidin-5-yl)-1H-indazole] c2

Assign a bin to CCCN1CCC=C(c2n[nH]c3c(CC)cccc23)C1 [Example 237] c1

Assign a bin to CCCN(CCC)C1CCC=C(c2n[nH]c3c(Cl)cccc23)C1 (centres unmarked) [Example 172] c1

Assign a bin to CN1CCC=C(c2n[nH]c3c(Cl)ccc(F)c23)C1 [Example 132] c3
